biological target: gp140UG37 (subtype A), gp140 envelope glycoprotein from the HIV-1 group M A-clade isolate 92UG037 (HIV-1); experiment: binding of purified VHH to gp140 92UG (method not given)
experimental_readout: K50 (50% binding concentration; column head reads KD) (µg/mL)
Write the number in µg/mL without appending the unit.

Some solved cases for reference:
[
  {
    "binder": "L8Cj3 Mutant 13 (VHH) VHH: EVQLVESGGGLVQAGGFLRLSCELRGRTFNQYAMAWFRQAPGKEREFVAGMGAVPHYGEFVKGRFTISRDNAKSTVYLQMSSLKPEDTAIYFCARSKSTYISYNSNGYDYWGRGTQVTVSS",
    "endpoint_result": 0.027
  },
  {
    "binder": "L8Cj3 Mutant 4 (VHH) VHH: EVQLVESGGGLVQAGGFLRLSCELRGSIFNQYAMAWFRQAPGKEREFVAGMGAVPHYADSVKGRFTISRDNAKSTVYLQMSSLKPEDTAIYFCARSKSTYISYNSNGYDYWGRGTQVTVSS",
    "endpoint_result": 0.025
  },
  {
    "binder": "L8Cj3 Mutant 6 (VHH) VHH: EVQLVESGGGLVQAGGFLRLSCELRGSIFNQYAMAWFRQAPGKEREFVAGMGAVPHYGEFVKGRFTISRDNAKSTVYLQMSSLKPEDTAIYYCARSKSTYISYNSNGYDYWGRGTQVTVSS",
    "endpoint_result": 0.024
  }
]

Item: L8Cj3 Mutant 11 (VHH) VHH: EVQLVESGGGLVQAGGFLRLSCELRGSIFNQYAMAWFRQAPGKEREFVAGMGAVPHYGEFVKGRFTISRDNAKSTVYLQMSSLKPEDTAIYFCARSKSTYISYNSNGYDYWGQGTQVTVSS | K50 (50% binding concentration; column head reads KD): 0.019

So for L8Cj3 Mutant 8 (VHH) VHH: EVQLVESGGGLVQAGGFLRLSCELRGSIFNQYAMAWFRQAPGKEREFVAGMGAVPHYGEFVKGRFTISRDNAKSTVYLQMSSLKPEDTAIYFCARSKNTYISYNSNGYDYWGRGTQVTVSS , the logged K50 (50% binding concentration; column head reads KD) turned out to be 0.02
